measurement_target: T1, Human TROP2 ECD (31-274 AA), biotinylated (human, UniProt P09758 31-274, biotinylated (site not stated))
T1 construct: also called tumor-associated calcium signal transducer 2; Human TROP2-biotin
T1 sequence: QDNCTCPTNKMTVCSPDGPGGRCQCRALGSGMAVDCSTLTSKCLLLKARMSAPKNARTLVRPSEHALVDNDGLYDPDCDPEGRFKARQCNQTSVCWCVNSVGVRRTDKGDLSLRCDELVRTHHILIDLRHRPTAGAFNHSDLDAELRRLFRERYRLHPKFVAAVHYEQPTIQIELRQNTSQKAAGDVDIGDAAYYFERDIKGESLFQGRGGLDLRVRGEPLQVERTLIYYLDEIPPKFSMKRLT
assay_text: ELISA, biotinylated TROP2 ECD on neutravidin plate, Fab titrated
pEC50: −log10 of the molar value.
Reported pEC50 values for the following binders.
measurement_type: pEC50

INSERT INTO measurements (binder, measurement_type, experimental_result) VALUES
  ('TBD-15 (anti-TROP2 Fab, HC G102A) (Fab, V domains shown) VH: QVQLQQSGSELKKPGASVKVSCKASGYTFTNYGMNWVKQAPGQGLKWMGWINTYTGEPTYTDDFKGRFAFSLDTSVSTAYLQISSLKADDTAVYFCARGGFASSYWYFDVWGQGSLVTVSS VL: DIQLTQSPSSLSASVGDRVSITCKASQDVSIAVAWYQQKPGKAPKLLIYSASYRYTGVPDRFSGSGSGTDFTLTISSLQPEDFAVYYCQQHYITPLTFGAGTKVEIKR', 'pEC50', 7.14),
  ('TBD-12 (anti-TROP2 Fab, HC G99A) (Fab, V domains shown) VH: QVQLQQSGSELKKPGASVKVSCKASGYTFTNYGMNWVKQAPGQGLKWMGWINTYTGEPTYTDDFKGRFAFSLDTSVSTAYLQISSLKADDTAVYFCARAGFGSSYWYFDVWGQGSLVTVSS VL: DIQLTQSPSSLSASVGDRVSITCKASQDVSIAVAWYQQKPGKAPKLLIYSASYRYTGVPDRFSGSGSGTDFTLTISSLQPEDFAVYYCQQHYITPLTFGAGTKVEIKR', 'pEC50', 9.70),
  ('TBD-16 (anti-TROP2 Fab, HC S103A) (Fab, V domains shown) VH: QVQLQQSGSELKKPGASVKVSCKASGYTFTNYGMNWVKQAPGQGLKWMGWINTYTGEPTYTDDFKGRFAFSLDTSVSTAYLQISSLKADDTAVYFCARGGFGASYWYFDVWGQGSLVTVSS VL: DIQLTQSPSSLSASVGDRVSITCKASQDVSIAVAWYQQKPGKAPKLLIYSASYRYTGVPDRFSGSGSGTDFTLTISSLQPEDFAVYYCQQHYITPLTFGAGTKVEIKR', 'pEC50', 9.70),
  ('TBD-11 (anti-TROP2 Fab, HC R98A) (Fab, V domains shown, also called TBD-11 (HC R98A mutant)) VH: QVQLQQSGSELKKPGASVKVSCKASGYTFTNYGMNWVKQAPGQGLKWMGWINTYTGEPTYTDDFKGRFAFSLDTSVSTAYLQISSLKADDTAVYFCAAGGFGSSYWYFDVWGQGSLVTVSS VL: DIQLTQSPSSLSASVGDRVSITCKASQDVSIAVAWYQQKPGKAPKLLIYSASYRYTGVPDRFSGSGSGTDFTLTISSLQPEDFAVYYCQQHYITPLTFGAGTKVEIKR', 'pEC50', 8.42);
